Just for reference, the supplement of paper PMC4723716 is where these values come from.

System: Plasmodium falciparum NF54 gametocytes
Assay: viability index relative to DMSO control (fraction); higher = less gametocyte killing
Details: gametocyte stage: Stage III viability index; 12.5 µM; incubation time: 72 h
MEASUREMENT TYPE: viability index
Give your answer as a number; write no unit.

Known results for molecules:
MOLECULE: COc1ccc2c(c1OC)C(=O)N1c3ccccc3N=C(c3ccc(C)cc3)CC21 (stereo unspecified)
viability index: 0.951
--
MOLECULE: COc1cccc(Nc2nc(N)c3ccccc3n2)c1
viability index: 0.786
--
MOLECULE: COc1cc2c(cc1OC)C1=NNC(=O)C1=NC(C)(C)C2
viability index: 0.0707

*Q* Consider the molecule COc1ccc2nc(C)cc(Nc3ccccc3O)c2c1 . State its measured viability index.
*A* 1.04

*Q* Consider the molecule c1ccc(Cn2c(N=Nc3c(Nc4ccccc4)ccc4ccccc34)nc3ccccc32)cc1 . State its measured viability index.
*A* 0.058

*Q* Consider the molecule COc1cccc(NC(=O)[C@H](C(C)C)n2c(=O)[nH]c3ccccc3c2=O)c1 . State its measured viability index.
*A* 0.0736

====

System: Plasmodium falciparum NF54 gametocytes
Assay: viability index relative to DMSO control (fraction); higher = less gametocyte killing
Conditions: gametocyte stage: Stage IV viability index; 12.5 µM; incubation time: 72 h
MEASUREMENT TYPE: viability index
Give your answer as a number; write no unit.

Known results for compounds:
COMPOUND: O=C(Nc1ccc(Cl)cc1C(=O)Nc1ccncc1)c1ccc(Cl)cc1Cl
viability index: 0.927
--
COMPOUND: COc1cccc(-c2nn(C)c3sc(C(=O)NCCN4CCN(c5ccccc5F)CC4)cc23)c1
viability index: 0.836
--
COMPOUND: O=C(Nc1ccc(F)c(Cl)c1)Nc1ccc(Cl)c(Cl)c1
viability index: 0.17
--
COMPOUND: CCOC(=O)c1c(C)n(-c2ccccc2)c2ccc(OC(=O)c3cc(OC)c(OC)c(OC)c3)cc12
viability index: 0.987
--
COMPOUND: COc1ccc2c(c1)C1(Nc3ccccc3-c3nc4ccccc4n31)C(=O)N2 (stereo unspecified)
viability index: 0.0608
--
COMPOUND: Cc1ccc(C)c(-c2csc(Nc3ccc(C)c(C)c3)n2)c1
viability index: 0.639

*Q* Consider the compound CCCCOC(=O)c1ccc(Nc2cc(C)nc3ccc(OC)cc23)cc1 . State its measured viability index.
*A* 0.411

*Q* Consider the compound N=c1c2ccccc2nnn1-c1cccc(C(F)(F)F)c1 . State its measured viability index.
*A* 0.785

*Q* Consider the compound COc1ccc(CCNC(=O)c2cc(S(=O)(=O)N3CC(C)CC(C)C3)ccc2Sc2ccc(F)cc2)cc1OC (stereo unspecified) . State its measured viability index.
*A* 0.769

*Q* Consider the compound CCC(=O)Nc1nnc(Cc2ccc(OC)c(OC)c2)s1 . State its measured viability index.
*A* 1.08

*Q* Consider the compound Oc1c2c(nc3ccccc13)CCCC2 . State its measured viability index.
*A* 0.87

====

Test system: Plasmodium falciparum NF54 gametocytes
Assay: viability index relative to DMSO control (fraction); higher = less gametocyte killing
Conditions: gametocyte stage: Stage I viability index; 12.5 µM; incubation time: 72 h
Note that class boundaries on viability index are 0 (below 0.1), 1 (0.1 to below 0.5), 2 (0.5 or more)

Worked examples follow.
MOLECULE: COc1ccc2nc(C)cc(Nc3cccc(O)c3)c2c1
CLASS NAME: 1
//
MOLECULE: CCOc1ccc2nc(C)cc(Nc3ccc(N(C)C)cc3)c2c1
CLASS NAME: 1
//
MOLECULE: CCCN(CCC)CC(O)COc1ccccc1C(=O)Nc1ccccc1 (configuration not stated)
CLASS NAME: 0
//
MOLECULE: CN1C=C(c2ccc3ccccc3n2)C(c2c[nH]c3ccccc23)c2ccccc21 (configuration not stated)
CLASS NAME: 1
//
MOLECULE: Brc1ccc(Nc2nc3ccccc3nc2Nc2ccc(Br)cc2)cc1
CLASS NAME: 0

*Q* Hello team, could you let me know which band the following molecule falls into: O=C(Nc1ccccc1O)c1ccc(Oc2cccc(C(=O)Nc3ccccc3O)c2)cc1
*A* 0

*Q* Hello team, could you let me know which band the following molecule falls into: COc1ccc2sc(N(Cc3cccnc3)C(=O)c3ccc(C#N)cc3)nc2c1
*A* 2

*Q* Hello team, could you let me know which band the following molecule falls into: COc1ccc(Nc2nc(NN=Cc3ccc(O)cc3)nc(Nc3ccc([N+](=O)[O-])cc3)n2)cc1
*A* 0

*Q* Hello team, could you let me know which band the following molecule falls into: O=C1C2=C(Nc3ccccc3SC2c2ccccc2)c2ccccc21 (configuration not stated)
*A* 2

*Q* Hello team, could you let me know which band the following molecule falls into: CCCCc1c(CCC)c(=N)c2ccccc2n1C
*A* 2

*Q* Hello team, could you let me know which band the following molecule falls into: Clc1ccc2c(N3CCCC3)ccnc2c1
*A* 1

====

System: Plasmodium falciparum NF54 gametocytes
Test: viability index relative to DMSO control (fraction); higher = less gametocyte killing
Conditions: gametocyte stage: Stage IV viability index; 12.5 µM; incubation time: 72 h
As shown below, each of these molecules has a reported viability index value.
Give your answer as a number; write no unit.

Known results for molecules:
SMILES INPUT: O=C(Nc1ccc(-c2nc3cc(NC(=O)c4ccc(Cl)cc4)ccc3[nH]2)cc1)c1ccc(Cl)cc1
MEASUREMENT TYPE: viability index
RESULT VALUE: 0.00316
--
SMILES INPUT: CCOC(=O)c1cn(CC)c2cc(N(C)CCc3ccc(OC)c(OC)c3)c(F)cc2c1=O
MEASUREMENT TYPE: viability index
RESULT VALUE: 0.827
--
SMILES INPUT: O=c1cc(NC2CCN(CCCc3ccccc3)CC2)c2cc(Cl)ccc2o1
MEASUREMENT TYPE: viability index
RESULT VALUE: 0.848
--
SMILES INPUT: Cc1ccc(S(=O)(=O)c2c(COC(=O)c3cccc(C)c3)c(-c3ccccc3)nn2C)cc1
MEASUREMENT TYPE: viability index
RESULT VALUE: 0.769

Turning now to a further molecule:
*Q* Consider the molecule COc1ccc2sc(N(Cc3cccnc3)C(=O)c3ccc(C#N)cc3)nc2c1 . State its measured viability index.
*A* 0.934

====

System: Plasmodium falciparum NF54 gametocytes
Assay: viability index relative to DMSO control (fraction); higher = less gametocyte killing
Settings: gametocyte stage: Stage II viability index; 12.5 µM; incubation time: 72 h
MEASUREMENT TYPE: viability index

Known results for compounds:
COMPOUND: O=C(NCC1Cc2cccc(-c3ccncc3)c2O1)c1csc2c1CCCC2 (stereo not given)
ASSAYED SYSTEM: Plasmodium falciparum NF54 gametocytes
viability index: 1.09

COMPOUND: COc1ccc(Nc2cc(C)nc(NCc3ccccc3)n2)cc1
ASSAYED SYSTEM: Plasmodium falciparum NF54 gametocytes
viability index: 0.319

COMPOUND: OCCNc1nc(Nc2ccc(Cl)c(Cl)c2)nc2ccccc12
ASSAYED SYSTEM: Plasmodium falciparum NF54 gametocytes
viability index: 0.246

*Q* Consider the compound COC(=O)c1ccc(C2C3=C(O)CC(c4ccc(F)cc4)CC3=Nc3ccccc3N2C(=O)c2ccccc2)cc1 (stereo not given) . State its measured viability index.
*A* 0.005

*Q* Consider the compound O=C1c2ccc3c4c(ccc(c24)C(=O)N1CCCCO)C(=O)N(CCCCO)C3=O . State its measured viability index.
*A* 0.261

*Q* Consider the compound Oc1c(C(Nc2ccccn2)c2cccc(Oc3ccccc3)c2)ccc2cccnc12 (stereo not given) . State its measured viability index.
*A* 0.975

*Q* Consider the compound OC1CCCCC1C1(NC(=S)Nc2ccccc2)CCCCC1 (stereo not given) . State its measured viability index.
*A* 0.184

*Q* Consider the compound O=C(Nc1nc(-c2ccccn2)cs1)c1ccccc1Br . State its measured viability index.
*A* 0.13

*Q* Consider the compound CN1CCN(c2ccc(Nc3c4ccccc4nc4ccccc34)cc2)CC1 . State its measured viability index.
*A* 0.0029

*Q* Consider the compound CC(=O)c1ccc(NC(=O)CSc2nc(-c3ccccc3Cl)ns2)cc1 . State its measured viability index.
*A* 0.308

*Q* Consider the compound COCCNCC(O)Cn1c2ccc(Cl)cc2c2cc(Cl)ccc21 (stereo not given) . State its measured viability index.
*A* 0.0937

*Q* Consider the compound COc1ccc(C2C(C(=O)Nc3cccc(OC)c3)c3ccccc3C(=O)N2C2CCCCC2)cc1 (stereo not given) . State its measured viability index.
*A* 0.0974

*Q* Consider the compound Cc1c(C)n(Cc2ccc(F)cc2)c2ccc(C(=O)NCc3ccco3)cc12 . State its measured viability index.
*A* 0.756

*Q* Consider the compound CCN(CC)CCn1c(=N)n(CC(O)c2ccc(Cl)c(Cl)c2)c2ccccc21 (stereo not given) . State its measured viability index.
*A* 0.057

*Q* Consider the compound CN1CCN(c2ncnc3c2[nH]c2ccc(Cl)cc23)CC1 . State its measured viability index.
*A* 0.577
